assay: physchem; settings: aqueous buffer
Reported metric: solubility

1) O=C1CCC(N2Cc3cc(CNC(=O)C(F)(F)c4ccc(Cl)cc4)ccc3C2=O)C(=O)N1 (stereo not shown) ... ≤ 1 µg/mL
